# credit: PubChem BioAssay (NCI)

- Test system: HT29 colon
- EXPERIMENT_DESCRIPTION: NCI tumour cell line growth inhibition, 48 h
Quick list: TGI per entry.

Known TGI results, listed for orientation:
COMPOUND: Cc1ccc(N=NN(C)C(C)C(O)Cc2ccccc2)cc1 (stereo not given)
STUDY_TARGET: HT29 colon
OBSERVED_VALUE: > 100 µM
--
COMPOUND: Cc1cc2nc3c(=O)[nH]c(=O)nc-3n(CC(O)C(O)C(O)CO)c2cc1N (stereo not given)
STUDY_TARGET: HT29 colon
OBSERVED_VALUE: > 100 µM
--
COMPOUND: O=C(Nc1ccccc1)n1cc(-c2ccccn2)c(N2CCOCC2)n1
STUDY_TARGET: HT29 colon
OBSERVED_VALUE: 19.1 µM
--
COMPOUND: Fc1ccc(Oc2nc3ccccc3nc2-c2ccccc2)cc1
STUDY_TARGET: HT29 colon
OBSERVED_VALUE: > 100 µM

Alright, here's another compound for you.
Ask | Fill blank: measured TGI of the compound COc1ccc(N=N/C(=N\NC(=O)c2cc(Br)ccc2O)c2ccc(N(CCC#N)CCC#N)cc2OC)cc1 is ____.
Reply | 118 µg/mL

---

- Tested on: SW-620 colon
- EXPERIMENT_DESCRIPTION: NCI tumour cell line growth inhibition, 48 h
Where a SMILES comes first, the peptide text is derived from it. The star is where a group is joined. Boc = CC(C)(C)OC(=O)*
ATTRIBUTE_MEASURED: TGI

Below are worked cases with known answers.
MOLECULE: O=C(CSc1nnc(Cc2ccccc2)o1)Nc1ccc(Cl)cc1[N+](=O)[O-]
STUDY_TARGET: SW-620 colon
ATTRIBUTE_MEASURED: TGI
OBSERVED_VALUE: 53.8 µM

MOLECULE: Cc1cc(O)c2c(c1)C(C1OC(CO)C(O)C(O)C1O)c1cc(O)cc(O)c1C2=O (centres undefined)
STUDY_TARGET: SW-620 colon
ATTRIBUTE_MEASURED: TGI
OBSERVED_VALUE: > 100 µM

MOLECULE: CN1C(=O)/C(=C2\S/C(=N\c3nnc(-c4ccccc4)o3)NC2=O)c2ccccc21
STUDY_TARGET: SW-620 colon
ATTRIBUTE_MEASURED: TGI
OBSERVED_VALUE: > 100 µM

MOLECULE: Clc1ccc(OCc2nnc3sc(SSc4nn5c(COc6ccc(Cl)cc6)nnc5s4)nn23)cc1
STUDY_TARGET: SW-620 colon
ATTRIBUTE_MEASURED: TGI
OBSERVED_VALUE: > 100 µM

MOLECULE: NC(=O)c1cc(I)ccc1NC(=O)/C=C/c1ccccc1Cl
STUDY_TARGET: SW-620 colon
ATTRIBUTE_MEASURED: TGI
OBSERVED_VALUE: > 39.6 µM

MOLECULE: COc1ccc(-c2[nH]c(-c3ccc(OC)cc3)c(-c3ccccn3)c2-c2ccccn2)cc1
STUDY_TARGET: SW-620 colon
ATTRIBUTE_MEASURED: TGI
OBSERVED_VALUE: > 100 µM

MOLECULE: CC(NC(=O)C1CCCN1C(=O)CNC(=O)OC(C)(C)C)C(=O)O (stereo not drawn) (Boc-Gly-Pro-Ala-OH; configuration not given here)
STUDY_TARGET: SW-620 colon
ATTRIBUTE_MEASURED: TGI
OBSERVED_VALUE: > 100 µM

MOLECULE: CCOC(=O)Nc1ccc2nc(N3CCCCCC3)sc2c1
STUDY_TARGET: SW-620 colon
ATTRIBUTE_MEASURED: TGI
OBSERVED_VALUE: > 100 µM

Ask | So what does the record say about TGI for COC(=O)CC1C2(C)C3=C(C)C(c4ccoc4)CC3OC2C2OC(=O)C3(C)C=CC(=O)C1(C)C23 (centres undefined) ?
Reply | 4.39 µM

---

- System: PC-3 prostate
- EXPERIMENT_DESCRIPTION: NCI tumour cell line growth inhibition, 48 h
ATTRIBUTE_MEASURED: TGI

COMPOUND: Cc1cn(CC2=NC3CCCCC3N2)c(=O)[nH]c1=O (stereo unspecified)
TGI: > 100 µM
--
COMPOUND: COc1ccc2nc3cc(Cl)ccc3c(NCCNCC(O)CO)c2c1 (stereo unspecified)
TGI: 10.7 µM
--
COMPOUND: O=C(O)c1ccc(NCc2nc3ccccc3[nH]2)cc1
TGI: > 100 µM
--
COMPOUND: CC(C)C1CC(CO)(CNc2nc(N)nc(Cl)c2/C=N\O)C1 (stereo unspecified)
TGI: 26.5 µM
--
COMPOUND: c1ccc(COCC[P+](c2ccccc2)(c2ccccc2)c2ccccc2)cc1
TGI: 5.32 µM
--
COMPOUND: CC(O)CC(=O)CO[C@H]1[C@H](O)[C@@H](O)[C@@H](O)[C@@H]2NC(=O)c3c(cc4c(c3O)OCO4)[C@H]21 (stereo partly specified)
TGI: 0.303 µM

Ask | Which value of TGI has been reported for CC(=O)c1cc2c(s1)C(=O)c1ccsc1C2=O in the records?
Reply | 1.15 µM

Ask | What value of TGI has been reported for the following compound? CC1=NNC(=O)C1C1CC(c2c[nH]c3ccccc23)=NN(c2ccccc2)C1=O (stereo unspecified)
Reply | > 100 µM

Ask | Recorded TGI for CCOc1cc(/C=N/c2nc3cc4sc(/N=C/c5ccc(O)c(OCC)c5)nc4cc3s2)ccc1O , please?
Reply | > 100 µM

Ask | State the recorded TGI for this entry: Cc1ccc(S(=O)(=O)OCC(=O)Nc2ccc(C(=O)O)c(O)c2)cc1
Reply | 131 µM

---

- System: SR leukemia
- EXPERIMENT_DESCRIPTION: NCI tumour cell line growth inhibition, 48 h; in the data active means GI50 below about 0.43 µM; inactive means the rest
Form entry, call: pick from y (active), n (inactive)

Use these answered entries as a reference point.
COMPOUND: O=C(CN1CCN(CCN2C(=O)c3cccc4cccc(c34)C2=O)CC1)Nc1ccc2ncsc2c1
LABEL: n
//
COMPOUND: O=C1Nc2ccc(O)cc2/C1=C\c1ccncc1
LABEL: n
//
COMPOUND: Cc1cc2c(C(=O)NCC#N)cccc2n1-c1nc2c(c(NCc3ccccc3)n1)CCCC2
LABEL: y

Ask | What did this assay record as the result for COc1ccc(C2CC(c3ccccc3)=NN2C(=O)c2cc(OC)c(OC)c(OC)c2)cc1O (stereo not given) ?
Reply | y

Ask | In this assay, the call recorded for CS(=O)(=O)c1ccc2c(c1)C(=O)c1c-2n(CCCBr)c(=O)c2cc([N+](=O)[O-])ccc12 was what?
Reply | n

---

- Test system: RXF 393 renal
- EXPERIMENT_DESCRIPTION: NCI tumour cell line growth inhibition, 48 h
Parameter GI50: see the listing below.

COMPOUND: C=C1C[C@@H](O)[C@@H](Br)C(C)(C)[C@]12CCC(C)(Br)C(Cl)C2 (stereo partly specified)
STUDY_TARGET: RXF 393 renal
GI50: 18.5 µM

COMPOUND: CN1CCN(Cc2ccc(NC(=O)c3cncc(C#Cc4c(N)ncc5c(F)cccc45)c3)cc2C(F)(F)F)CC1
STUDY_TARGET: RXF 393 renal
GI50: 0.799 µM

COMPOUND: COc1ccc(N=N/C(=N\NC(=O)c2cc(Br)ccc2O)c2ccc(N(CCC#N)CCC#N)cc2OC)cc1
STUDY_TARGET: RXF 393 renal
GI50: 50.2 µg/mL

COMPOUND: COC(=O)[C@H](Cc1ccccc1)NNC(=O)c1csc([C@@H](C[C@H](C(C)C)N(C)C(=O)[C@@H](NC(=O)[C@H]2CCCCN2C)C2CC2)OC(C)=O)n1
STUDY_TARGET: RXF 393 renal
GI50: 0.0025 µM

Let's switch to this compound now.
Ask | Reported GI50 for COc1ccc(C2=NN(C=O)C(c3ccc(OS(=O)(=O)c4ccc(C)cc4)c(OC)c3)C2)cc1 (stereo unspecified) : what is it?
Reply | 3.81 µM

---

Examples of compounds with documented TGI follow.
- System: SW-620 colon
- EXPERIMENT_DESCRIPTION: NCI tumour cell line growth inhibition, 48 h
API: value field is a number in µM; no unit string.

For orientation, consider the following solved cases.
COMPOUND: CCCCOC(=O)/C=C\C(=O)NC(N)=O
TGI (µM): 32.3

COMPOUND: CC(=O)c1cc2c(s1)C(=O)c1ccsc1C2=O
TGI (µM): 0.37

COMPOUND: Cc1cc2c(C(=O)NCC#N)cccc2n1-c1nc2c(c(NCc3ccccc3)n1)CCCC2
TGI (µM): 1.29

COMPOUND: CC(=O)OC1CC2C(C)(C)CCC[C@]2(C)C2=C1C(O)=C(C(C)C)C(=O)C2=O (stereo not given in full)
TGI (µM): 2.92

COMPOUND: COc1cc(-c2cc(-c3cccs3)c(C#N)c(N3CCOCC3)n2)cc(OC)c1OC
TGI (µM): 4.62

Ask | Report TGI for CN(C)CCCOc1ccc(/C=C2/CCC/C(=C/c3ccc(OCCCN(C)C)cc3)C2=O)cc1 please.
Reply | 3.73

Ask | Sample Cc1ccc(NC(=O)CCc2nnc3s/c(=C\c4cccc([N+](=O)[O-])c4)c(=O)n23)cc1 — what was its TGI?
Reply | 38.6

Ask | Can you share its TGI? I mean this compound: CC(=O)Nc1c2sscc-2n(C)c1=O
Reply | 1.83

Ask | Reported TGI, compound Cc1occc1C(=S)Nc1ccc(Cl)c(C(=O)OCC(C)C)c1 : ____
Reply | 45.8

Ask | Param item = CCC1=C[C@@H]2CN(C1)Cc1c([nH]c3ccccc13)[C@@](C(=O)OC)(c1cc3c(cc1OC)N(C)[C@H]1[C@@](O)(C(=O)OC)[C@H](OC(C)=O)[C@]4(CC)C=CCN5CC[C@]31[C@@H]54)C2 ; retrieve measured TGI.
Reply | 17.9
